Where do the numbers come from? From patent US20070276011A1.

- tested on: recombinant human PAI-1 (Homo sapiens, UniProt P05121)
- Sequence (P05121 24-402): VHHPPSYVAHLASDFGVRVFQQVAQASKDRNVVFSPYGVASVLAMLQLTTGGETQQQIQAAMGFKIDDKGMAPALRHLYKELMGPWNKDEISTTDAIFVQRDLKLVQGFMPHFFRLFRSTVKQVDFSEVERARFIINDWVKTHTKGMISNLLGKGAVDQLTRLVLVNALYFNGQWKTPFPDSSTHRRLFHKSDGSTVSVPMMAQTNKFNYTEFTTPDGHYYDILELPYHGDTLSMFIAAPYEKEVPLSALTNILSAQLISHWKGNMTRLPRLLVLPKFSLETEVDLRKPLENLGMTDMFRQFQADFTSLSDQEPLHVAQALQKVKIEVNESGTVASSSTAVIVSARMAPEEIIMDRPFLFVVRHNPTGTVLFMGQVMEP
- measurement notes: PAI-1 inhibitory activity, Test Method A (tPA fluorogenic substrate, Tris buffer pH8.0, 37 C)
- Format: biochemical
- measurement setup: 25 μM test compound; Test Method A
observed property: Inhibitory Ratio at 25 μM (%)
Answer in %, number only, no unit symbol.

O=C(Nc1cc(C(F)(F)F)ccc1Cl)c1cc(C=C2SC(=O)N(Cc3ccc(Cl)c(Cl)c3)C2=O)ccc1O    75

[Q] Check the records and state Inhibitory Ratio at 25 μM (%) for COC(=O)c1ccc(C(=O)n2cc(C=C3SC(=O)N(Cc4ccc(Cl)c(Cl)c4)C3=O)c3ccccc32)cc1
[A] 85

----------
- tested on: recombinant human PAI-1 (Homo sapiens)
- measurement notes: PAI-1 inhibitory activity, Test Method A (tPA fluorogenic substrate, Tris buffer pH8.0, 37 C)
- measurement setup: 50% inhibitory concentration of PAI-1 activity, according to the aforementioned method
pIC50: −log10 of the molar value.
observed property: pIC50

The examples below pair each entry with its known result.
O=C1C(=Cc2cc(O)c(O)cc2O)C(c2ccccc2)=NN1c1cc(Cl)cc(Cl)c1    6.41
O=C1SC(=Cc2ccc(O)c(O)c2)C(=O)N1Cc1ccc(Cl)cc1Cl    6.60
O=C(Cc1cccc(Oc2ccccc2)c1)Nc1ccc(CN2C(=O)SC(=Cc3cccc(O)c3O)C2=O)cc1    6.54
O=C1SC(=Cc2cccc(O)c2O)C(=O)N1Cc1cccc(Cl)c1Cl    6.42

1: O=C1SC(=Cc2cccc(O)c2O)C(=O)N1Cc1ccc(Br)cc1
2: CC1=NN(c2cc(Cl)cc(Cl)c2)C(=O)C1=Cc1cc(O)c(O)cc1O
3: O=C1C(=Cc2ccc(O)c(O)c2)SC(=S)N1Cc1ccc(Cl)c(Cl)c1
[Q] Ascending by pIC50, please. Arrange the labels as the request states and list them.
[A] 2, 1, 3
(2: 6.09, 1: 6.35, 3: 6.64)

----------
- tested on: recombinant human PAI-1 (Homo sapiens, UniProt P05121)
- measurement notes: PAI-1 inhibitory activity, Test Method A (tPA fluorogenic substrate, Tris buffer pH8.0, 37 C)
- Type: biochemical
- measurement setup: test compound 25 μM; Test Method A
- Description: To this solution, 50 μL solution of 400 μM fluogenic substrate for tPA (Pyr-Gly-Arg-MCA, Peptide Institute, Inc.) adjusted with the same buffer was added, and reacted for 30 minutes at 37° C. The reaction was stopped by adding 50 μL of 2% acetic acid. Fluorescence was measured at the excitation wavelength=360 nm, emission wavelength=460 or 465 nm using a microplate reader (SPECTRAFLUOR or GENios) by TECAN. […]
observed property: Inhibitory Ratio at 25 μM (%)

The examples below pair each entry with its known result.
O=C1SC(=Cc2ccc(O)c(O)c2O)C(=O)N1Cc1ccc(Cl)c(Cl)c1    68
O=C1C(=Cc2ccc(-c3cc(Cl)cc(Cl)c3)o2)C(c2ccccc2)=NN1c1cccc([N+](=O)[O-])c1    50
COc1cc(C=C2C(=O)N(c3cccc(Cl)c3)N=C2C)cc(O)c1O    33
Cc1cccc(N2N=C(C(C)C)C(=Cc3cc(O)c(O)c(O)c3)C2=O)c1    37
CC1=NN(c2cccc(C(F)(F)F)c2)C(=O)C1=Cc1cccc(O)c1    35

a: CC1=NN(c2cccc(Cl)c2)C(=O)C1=Cc1ccc(O)c(O)c1
b: CC1=NN(c2cccc(C(=O)O)c2)C(=O)C1=Cc1cc(Br)ccc1OCc1ccccc1
[Q] Lower value for measured Inhibitory Ratio at 25 μM (%)? Options: a , b // respond with label for picked entry
[A] a
(a: 46%, b: 66%)
